- system: AChE (Type VI-S from Electrophorus electricus) (Electrophorus electricus)
- Construct: purchased Sigma-Aldrich Type VI-S
- Sequence (O42275 24-633): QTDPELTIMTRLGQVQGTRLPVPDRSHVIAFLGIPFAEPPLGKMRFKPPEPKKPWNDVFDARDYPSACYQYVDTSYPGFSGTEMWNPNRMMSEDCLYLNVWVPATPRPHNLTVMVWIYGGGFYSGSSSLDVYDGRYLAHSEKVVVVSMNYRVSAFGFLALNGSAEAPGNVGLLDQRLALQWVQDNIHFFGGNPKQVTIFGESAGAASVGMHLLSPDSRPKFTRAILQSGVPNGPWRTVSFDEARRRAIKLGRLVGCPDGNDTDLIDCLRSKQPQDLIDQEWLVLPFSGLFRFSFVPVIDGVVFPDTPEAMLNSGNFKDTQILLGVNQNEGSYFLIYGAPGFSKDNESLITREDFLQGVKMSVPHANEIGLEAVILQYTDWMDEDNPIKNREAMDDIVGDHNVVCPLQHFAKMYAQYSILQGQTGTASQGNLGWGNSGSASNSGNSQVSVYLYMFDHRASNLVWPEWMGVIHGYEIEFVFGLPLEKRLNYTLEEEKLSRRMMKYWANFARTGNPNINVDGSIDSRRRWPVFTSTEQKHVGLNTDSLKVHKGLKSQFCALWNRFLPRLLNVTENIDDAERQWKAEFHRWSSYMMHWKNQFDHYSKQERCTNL
- assay method text: AChE inhibition assay (DTNB / acetylthiocholine iodide)
- Assay type: biochemical
- protocol conditions: compound at 10 µM; mean ± standard error of duplicate experiments; 10 µM
measured parameter: Residual Activity (%) AChE (10 µM)
A number alone suffices; assume %.

>>> df
                                   molecule  units_text  assay_result
0  C/C(=N\Oc1ccc(/C=C/C(=O)c2ccccc2)cc1)c1ccc(F)cc1 [COE-5]           %          46.5
1  C/C(=N\Oc1ccc(/C=C/C(=O)c2cccc3ccccc23)cc1)c1cccs1 [COE-9]           %          46.7
2  COc1ccc(/C=C/C(=N/Oc2ccc(/C=C/C(=O)c3ccccc3)cc2)c2ccc(OC)cc2)cc1 [COE-19]           %          39.0
3  COc1ccc(/C=C/C(=O)c2ccc(ON=C3CCCCC3)cc2)cc1 [COE-10]           %          47.6

Then there is this molecule:
Lookup: Recorded Residual Activity (%) AChE (10 µM) for COc1ccc(C(/C=C/c2ccccc2)=N\Oc2ccc(/C=C/C(=O)c3ccc(C)cc3)cc2)cc1 [COE-21] with AChE (Type VI-S from Electrophorus electricus) (Electrophorus electricus), please?
Found: 49.4

###

- system: MAO-B (Homo sapiens, UniProt P27338)
- Construct: purchased Sigma-Aldrich
- assay method text: biochemical
- protocol conditions: MAO-A vs. MAO-B IC50 ratio
measured parameter: SI (selectivity index, ratio of IC50 MAO-A to MAO-B)

Lookup: May I ask what SI (selectivity index, ratio of IC50 MAO-A to MAO-B) has been recorded for COc1ccc(/C=C/C(=N/Oc2ccc(C(C)=O)cc2)c2ccc(OC)cc2)cc1 ?
Found: >13.9

Lookup: Entry COc1ccc(/C=C/C(=N/Oc2ccc(/C=C/C(=O)c3ccc(OC)cc3)cc2)c2ccc(OC)cc2)cc1 please
Found: >28.6

Lookup: Entry COc1ccc(/C=C/C(=O)c2ccc(O/N=C(\C)c3cccc4ccccc34)cc2)cc1OC please
Found: >6.3

Lookup: Entry COc1ccc(C(=O)/C=C/c2ccc(ON=C(c3ccccc3)c3ccccc3)cc2)cc1 please
Found: >208.3

###

Some compounds, each annotated with its measured remaining activity at 1 µM.
- system: MAO-B (Homo sapiens, UniProt P27338)
- Construct: purchased Sigma-Aldrich
- Sequence (P27338 1-520): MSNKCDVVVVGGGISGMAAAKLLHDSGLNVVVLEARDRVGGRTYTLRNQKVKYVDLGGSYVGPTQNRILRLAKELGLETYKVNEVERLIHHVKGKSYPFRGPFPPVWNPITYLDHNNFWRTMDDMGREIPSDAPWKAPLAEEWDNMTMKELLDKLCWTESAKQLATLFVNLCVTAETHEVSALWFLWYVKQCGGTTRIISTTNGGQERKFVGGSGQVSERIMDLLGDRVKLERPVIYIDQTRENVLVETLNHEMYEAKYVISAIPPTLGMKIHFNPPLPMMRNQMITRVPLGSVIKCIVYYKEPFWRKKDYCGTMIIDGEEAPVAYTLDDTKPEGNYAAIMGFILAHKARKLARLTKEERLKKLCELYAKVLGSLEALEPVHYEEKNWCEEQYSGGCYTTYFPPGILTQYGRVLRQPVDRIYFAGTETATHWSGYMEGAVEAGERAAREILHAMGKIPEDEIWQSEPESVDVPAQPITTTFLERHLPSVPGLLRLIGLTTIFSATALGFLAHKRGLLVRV
- assay method text: biochemical
- protocol conditions: read-out: Residual Activity (%) MAO-B (1.0 µM)
A number alone suffices; assume %.

# count of solved cases: 10
>>> print(df.to_string())
                            compound_string  units_text  assay_result
0  COc1ccc(/C=C/C(=O)c2ccc(ON=C3CCCCC3)cc2)cc1           %          21.6
1  COc1ccc(C(=O)/C=C/c2ccc(O/N=C3\CCc4ccccc43)cc2)cc1           %          4.31
2  COc1cccc(/C=C/C(=O)c2ccc(O/N=C(\C)c3cccs3)cc2)c1           %          31.9
3  COc1ccc(C(/C=C/c2ccccc2)=N\Oc2ccc(C(C)=O)cc2)cc1           %          97.8
4  COc1ccc(/C=C/C(=O)c2ccc(O/N=C(/C=C/c3ccc(OC)cc3)c3ccc(OC)cc3)cc2)cc1           %          25.8
5  COc1ccc(/C=C/C(=N/Oc2ccc(C(C)=O)cc2)c2ccc(OC)cc2)cc1           %          17.6
6  COc1cc(/C=C/C(=O)c2ccc(ON=C(c3ccccc3)c3ccccc3)cc2)cc(OC)c1OC           %          36.9
7  COc1ccc(C(=O)/C=C/c2ccc(ON=C(c3ccccc3)c3ccccc3)cc2)cc1           %          21.6
8  COC(=O)c1ccc(O/N=C(/C=C/c2ccc(OC)cc2)c2ccc(OC)cc2)cc1           %          33.3
9  COc1ccc(/C=C/C(=N/Oc2ccc(/C=C/C(=O)c3ccccc3)cc2)c2ccc(OC)cc2)cc1           %          19.2

Lookup: May I ask what remaining activity at 1 µM has been recorded for O=C(/C=C/c1ccc(ON=C2CCCCC2)cc1)c1ccc(F)cc1 ?
Found: -1.06

Lookup: Entry COc1ccc(/C=C/C(=O)c2ccc(O/N=C(\C)c3cccc4ccccc34)cc2)cc1OC please
Found: 63.7

Lookup: Entry O=C(/C=C/c1ccc(ON=C(c2ccccc2)c2ccccc2)cc1)c1ccc(F)cc1 please
Found: 2.48

Lookup: Entry COc1ccc(C(/C=C/c2ccccc2)=N\Oc2ccc(/C=C/C(=O)c3ccc(C)cc3)cc2)cc1 please
Found: -2.19

Lookup: Entry C/C(=N\Oc1ccc(/C=C/C(=O)c2ccccc2)cc1)c1ccc(F)cc1 please
Found: 57.5

Lookup: Entry COc1ccc(C(/C=C/c2ccccc2)=N\Oc2ccc(C(=O)/C=C/c3cc(OC)c(OC)c(OC)c3)cc2)cc1 please
Found: 87.4

Lookup: Entry COc1ccc(/C=C/C(=O)c2ccc(O/N=C(\C)c3ccc(F)cc3)cc2)cc1 please
Found: 68.5

Lookup: Entry COc1ccc(C(=O)/C=C/c2ccc(O/N=C(\C)c3ccc(OC)cc3)cc2)cc1 please
Found: 27.6
